experimental-details: Radioactivity distribution in mouse body after intravenous administration of radioiodine labeled forms
condition-label: mouse, intravenous administration, blood, 30 min after administration; mean (SD) of 3 to 5 mice
Please provide measured Distribution of radioactivity, Blood for the entries that follow.

Kindly note the recorded Distribution of radioactivity, Blood for CNc1ccc(C=Cc2cc(=O)c3cc([125I])ccc3o2)cc1 [[125I]Compound 47] , which is 2.19 (0.29) % ID/g

Kindly note the recorded Distribution of radioactivity, Blood for O=c1cc(-c2ccc(O)cc2)oc2ccc([125I])cc12 [[125I]Compound 20] , which is 0.66 (0.03) % ID/g

Kindly note the recorded Distribution of radioactivity, Blood for CN(C)c1ccc(-c2cc(=O)c3cc([125I])ccc3o2)cc1 [[125I]Compound 11] , which is 1.20 (0.15) % ID/g

Kindly note the recorded Distribution of radioactivity, Blood for Nc1ccc(C=Cc2cc(=O)c3cc([125I])ccc3o2)cc1 [[125I]Compound 46] , which is 2.56 (0.64) % ID/g

Kindly note the recorded Distribution of radioactivity, Blood for COc1ccc(-c2cc(=O)c3cc([125I])ccc3o2)cc1 [[125I]Compound 19] , which is 0.40 (0.01) % ID/g

Kindly note the recorded Distribution of radioactivity, Blood for COc1cc(/C=C/C(=O)c2cccc([125I])c2)ccc1O [[125I]Compound 31] , which is 1.84 (0.31) % ID/g

Kindly note the recorded Distribution of radioactivity, Blood for CNc1ccc(-c2cc(=O)c3cc([125I])ccc3o2)cc1 [[125I]Compound 10] , which is 1.34 (0.07) % ID/g

Kindly note the recorded Distribution of radioactivity, Blood for CN(C)c1ccc(C=Cc2cc(=O)c3cc([125I])ccc3o2)cc1 [[125I]Compound 48] , which is 1.5 (0.22) % ID/g

###

experimental-details: Radioactivity distribution in mouse body after intravenous administration of radioiodine labeled forms
condition-label: mouse, intravenous administration, intestine, 2 min after administration; mean (SD) of 3 to 5 mice
measure: Distribution of radioactivity, Intestine

Kindly note the recorded Distribution of radioactivity, Intestine for COc1ccc(-c2cc(=O)c3cc([125I])ccc3o2)cc1 [[125I]Compound 19] , which is 3.52 (0.29) % ID/g

Kindly note the recorded Distribution of radioactivity, Intestine for CNc1ccc(C=Cc2cc(=O)c3cc([125I])ccc3o2)cc1 [[125I]Compound 47] , which is 2.59 (0.38) % ID/g

Kindly note the recorded Distribution of radioactivity, Intestine for Nc1ccc(C=Cc2cc(=O)c3cc([125I])ccc3o2)cc1 [[125I]Compound 46] , which is 2.84 (0.18) % ID/g

Kindly note the recorded Distribution of radioactivity, Intestine for CNc1ccc(-c2cc(=O)c3cc([125I])ccc3o2)cc1 [[125I]Compound 10] , which is 3.10 (0.61) % ID/g

Kindly note the recorded Distribution of radioactivity, Intestine for CN(C)c1ccc(C=Cc2cc(=O)c3cc([125I])ccc3o2)cc1 [[125I]Compound 48] , which is 1.52 (0.09) % ID/g

Kindly note the recorded Distribution of radioactivity, Intestine for CN(C)c1ccc(-c2cc(=O)c3cc([125I])ccc3o2)cc1 [[125I]Compound 11] , which is 2.24 (0.24) % ID/g

Kindly note the recorded Distribution of radioactivity, Intestine for O=c1cc(-c2ccc(O)cc2)oc2ccc([125I])cc12 [[125I]Compound 20] , which is 3.12 (0.37) % ID/g

Kindly note the recorded Distribution of radioactivity, Intestine for COc1cc(/C=C/C(=O)c2cccc([125I])c2)ccc1O [[125I]Compound 31] , which is 2.50 (0.31) % ID/g

All figures here come from patent US8192717B2.
